test system: IGROV-1; assay: NCI tumour cell line growth inhibition, 48 h
Active and inactive are the calls of the source. Cut-off read from the data, not from the text of the source: active = GI50 up to about 1.1 µM and inactive = higher.
// one of active, inactive, no free text

Worked examples follow.
COc1cc(C2c3cc4c(cc3OC(NNC(N)=O)C2C)OCO4)cc(OC)c1OC (stereo unspecified) : active
Fc1ccc(NC(=S)SCc2ccc3c(c2)OCO3)cc1F : inactive
CN(C)C(=O)Oc1ccc(C(=S)Nc2ccccc2)cc1Br : inactive
CN(C)CC1CCCC1=O (stereo unspecified) : inactive
C=C1CCC2[C@@H](CCC3[C@]2(C)CCC[C@]3(C)C(=O)OC)C1CCO (stereo partly specified) : inactive

## Task What call does the record list for CCN(CC)c1ccc(/C=C2/C[N+](C)(C)C/C(=C/c3ccc(N(CC)CC)cc3)C2=O)cc1 ?
## Result inactive

## Task What call does the record list for COc1ccc(/N=C\c2cc(OC)c(OC)c(OC)c2)cc1 ?
## Result inactive

* * *

# GI50 listing for each entry below
test system: OVCAR-4; experiment: NCI tumour cell line growth inhibition, 48 h
Activity calls are given as the source filed them. No stated cut-off is given here; in the data, active = GI50 up to about 1.1 µM and inactive = higher.

Sample records with GI50:
CC1=NN2C(=N)/C(=C/c3ccc(F)cc3)C(=O)N=C2S1 : > 100 µM (inactive)
Cc1ccc(N2Cc3c(ccc4ccccc34)OP2(=O)Oc2ccc(Cl)c(C)c2)cc1 (configuration not stated) : > 100 µM (inactive)
N#C/N=[N+](\[O-])c1ccc(C(=O)O)cc1 : 21 µM (inactive)
CN(C)CCCNc1c2ccccc2[n+]([O-])c2ccccc12 : 27.1 µM (inactive)
COc1ccc(C(OCC2OC(n3cc(C)c(=O)[nH]c3=O)CC2n2cc(Cn3cc(F)c(=O)[nH]c3=O)nn2)(c2ccccc2)c2ccccc2)cc1 (configuration not stated) : 16.4 µM (inactive)

## Task For OVCAR-4, give the measured GI50 of the entry COc1cccc(/C=C2\C(=O)N(C(=O)Cc3ccccc3)N=C2C)c1
## Result > 100 µM (inactive)

## Task For OVCAR-4, give the measured GI50 of the entry O=S(=O)([N-]c1nc2ccccc2nc1-[n+]1ccccc1)c1ccccc1
## Result > 100 µM (inactive)

## Task For OVCAR-4, give the measured GI50 of the entry O=C1C2c3[nH]c4ccccc4c3C3CCCC3C2C(=O)N1c1ccccc1 (configuration not stated)
## Result 17.1 µM (inactive)

## Task For OVCAR-4, give the measured GI50 of the entry O=CNCNCCO
## Result > 100 µM (inactive)

## Task For OVCAR-4, give the measured GI50 of the entry CCOC(=O)c1cn2c(n1)sc1cc([N+](=O)[O-])ccc12
## Result > 100 µM (inactive)

## Task For OVCAR-4, give the measured GI50 of the entry O=C1c2ccccc2C(=O)N1CC1(C(=O)O)NCCS1(=O)=O (configuration not stated)
## Result > 100 µM (inactive)

## Task For OVCAR-4, give the measured GI50 of the entry COP(C)(=O)/C(Cc1ccccc1)=N\O (configuration not stated)
## Result > 100 µM (inactive)

* * *

test system: HCT-116; experiment: NCI tumour cell line growth inhibition, 48 h
Active and inactive are the calls of the source. No stated cut-off is given here; in the data, active = GI50 up to about 1.1 µM and inactive = higher.
# GI50 listing for each entry below

Sample records with GI50:
CC(=O)[C@@]1(c2ccccc2)CC2(CCN(C)CC2)O[C@H]1C : > 100 µM (inactive)
COc1ccc(-c2csc3c2[N+]2(C)C=CC=C2C3N2CCCC2)cc1 (stereo unspecified) : 33 µM (inactive)
O=CNCNCCO : > 100 µM (inactive)

## Task Look up and report measured GI50 for this entry: COc1ccc(C2NC3=C(CCCC3)N2)cc1
## Result 64.9 µM (inactive)

## Task Look up and report measured GI50 for this entry: COC1CC(OS(=O)(=O)c2ccc([N+](=O)[O-])cc2)C(OC(=O)c2ccccc2)C(C)O1 (stereo unspecified)
## Result > 100 µM (inactive)

## Task Look up and report measured GI50 for this entry: O=C1N=NC(=O)N1c1cc(C(F)(F)F)cc(C(F)(F)F)c1
## Result 3.24 µM (inactive)

* * *

tested on: EKVX; assay: NCI tumour cell line growth inhibition, 48 h
Calls of active or inactive are those of the source. No stated cut-off is given here; in the data, active = GI50 up to about 1.1 µM and inactive = higher.
readout label: GI50

Sample records with GI50:
BrP(NC1CCCCCC1)(c1ccccc1)(c1ccccc1)c1ccccc1 : 7.14 µM (inactive)
C/C(=N\NS(=O)(=O)c1ccc(C)cc1)c1ccc[n+]([O-])n1 : > 100 µM (inactive)
Cc1ccc(-c2cc(-c3ccc(Cl)cc3)nc(/N=C3\C(=O)N(CN4CCOCC4)c4ccc(Cl)cc43)n2)cc1 : 15.2 µM (inactive)
CC(C)Oc1cccc(N2C(n3ccnc3)=Nc3ccncc3S2(=O)=O)c1 : 16.2 µM (inactive)
O=C1NC2(CCCCC2)C2CCCCC(O)C12 (stereo unspecified) : > 100 µM (inactive)
O=C1/C(=C/c2ccc(Oc3ccccc3)cc2)N=C(c2ccccc2)N1c1ccc(S(=O)(=O)Nc2nccs2)cc1 : 23.2 µM (inactive)
CCOc1ccc(NC(=O)C(=O)CC(=O)c2c(C)[n+]([O-])c3ccccc3[n+]2[O-])cc1 : > 100 µM (inactive)
O=c1[nH]nc(-c2ccccc2)n1O : > 100 µM (inactive)

## Task Look up and report measured GI50 for this entry: CNc1nc(N)cc(O)n1
## Result > 100 µM (inactive)

## Task Look up and report measured GI50 for this entry: Oc1cc2c3c(c1)CCCN3CCC2
## Result > 10 µM (inactive)

## Task Look up and report measured GI50 for this entry: COc1ccc2c(OC)c3ccoc3nc2c1O
## Result 53.8 µM (inactive)

* * *

tested on: UACC-62; test: NCI tumour cell line growth inhibition, 48 h
Activity calls are given as the source filed them. Cut-off read from the data, not from the text of the source: active = GI50 up to about 1.1 µM and inactive = higher.
// one of active, inactive, no free text

N#C/C(=C\c1ccc(O)c(O)c1)C(=O)NC1CCC(CC2CCC(NC(=O)/C(C#N)=C/c3ccc(O)c(O)c3)CC2)CC1 (stereo not drawn) : inactive
Cc1ccc(S(=O)(=O)NC(=O)NC(CCCCNC(=N)N)C(=O)O)cc1 (stereo not drawn) : inactive
Oc1cc2c3c(c1)CCCN3CCC2 : inactive
COc1cc(C2c3cc4c(cc3OC(NNC(N)=O)C2C)OCO4)cc(OC)c1OC (stereo not drawn) : active
O=[N+]([O-])c1cccc2c(/N=N/c3ccc4ccccc4c3O)c(O)cc(S(=O)(=O)O)c12 : inactive
COc1ccc2c(OC)c3ccoc3nc2c1O : inactive
C/C(=N\O)c1ccc2cc(Br)c3ccccc3c2c1 : inactive
COc1ccc(N(C)C(=O)N(C)c2ccc([N+](=O)[O-])cc2)cc1 : inactive

## Task What call does the record list for CCOc1cc2c(cc1O)CC[C@@H]1[C@@H]2CC[C@]2(C)C(N)CC[C@@H]12 (stereo partly drawn) ?
## Result inactive

## Task What call does the record list for O=CNCNCCO ?
## Result inactive

* * *

system: SK-MEL-5; experiment: NCI tumour cell line growth inhibition, 48 h
Calls of active or inactive are those of the source. No stated cut-off is given here; in the data, active = GI50 up to about 1.1 µM and inactive = higher.
readout label: GI50

Sample records with GI50:
CC1=NC(=O)C(C)(c2ccccc2)N1CCc1ccccc1 (configuration not stated) : 27 µM (inactive)
COc1ccc(OCC(C)(C)O)cc1 : > 100 µM (inactive)
CN(C)CCO/N=C1/C=C2CC[C@H]3[C@@H]4CC[C@H](O)[C@@]4(C)CC[C@@H]3[C@@]2(C)CC1 : 8.71 µM (inactive)
C[C@@]1(Cc2ccccc2)C(=O)N2[C@@H](CO)C(c3ccccc3)O[C@]2(C)c2ccccc21 (some centres not stated) : > 100 µM (inactive)
C=C(NC(=O)C(=C)NC(=O)c1ccc2c(n1)-c1coc(n1)C(=C)NC(=O)C(=C)NC(=O)c1nc(oc1C)C(=C)NC(=O)C(C(C)(C)O)NC(=O)C(=C)NC(=O)c1coc(n1)/C(=C/C)NC(=O)[C@H]([C@@H](C)O)NC(=O)c1csc-2n1)C(N)=O (some centres not stated) : 41.6 µM (inactive)
COc1ccc2c(c1)CCCN1Cc3ccccc3CC21 (configuration not stated) : 22.5 µM (inactive)
CCOC(=O)C(NC(=O)c1ccccc1)(Nc1ccc(Cl)cc1C(F)(F)F)C(F)(F)F (configuration not stated) : 4.91 µM (inactive)
CC(C)=CCC[C@@H](C)C1=C(Nc2ccccc2F)C(=O)C(C)=C(O)C1=O : 3.18 µM (inactive)

## Task Look up and report measured GI50 for this entry: Cc1ccc(/C=C2\NC(=S)N(CN3CCOCC3)C2=O)cc1
## Result > 100 µM (inactive)

## Task Look up and report measured GI50 for this entry: O=[PH](O)c1ccccn1
## Result > 100 µM (inactive)

## Task Look up and report measured GI50 for this entry: COc1ccc(OC)c2c(Nc3ccc(S(=O)(=O)O)c4cc(S(=O)(=O)O)cc(S(=O)(=O)O)c34)cc(C)nc12
## Result > 100 µM (inactive)

## Task Look up and report measured GI50 for this entry: COc1cccc(/C=C2\C(=O)N(C(=O)Cc3ccccc3)N=C2C)c1
## Result > 100 µM (inactive)
